Observable: pIC50
Lab note: report pIC50 as minus log10 of the concentration in molar units, number only.

Please state recorded pIC50 (tested on Serine/threonine-protein kinase B-raf (Homo sapiens)) of CCN(C)S(=O)(=O)Nc1cccc(-c2nc(C(C)(C)C)sc2-c2ccnc(N)n2)c1
7.92

---

Exercise: state measured EC50 for each of the molecules provided.
Biological target: Nuclear receptor subfamily 1 group I member 2 (Homo sapiens)
Sequence (O75469 whole entry, the tested form may be a part): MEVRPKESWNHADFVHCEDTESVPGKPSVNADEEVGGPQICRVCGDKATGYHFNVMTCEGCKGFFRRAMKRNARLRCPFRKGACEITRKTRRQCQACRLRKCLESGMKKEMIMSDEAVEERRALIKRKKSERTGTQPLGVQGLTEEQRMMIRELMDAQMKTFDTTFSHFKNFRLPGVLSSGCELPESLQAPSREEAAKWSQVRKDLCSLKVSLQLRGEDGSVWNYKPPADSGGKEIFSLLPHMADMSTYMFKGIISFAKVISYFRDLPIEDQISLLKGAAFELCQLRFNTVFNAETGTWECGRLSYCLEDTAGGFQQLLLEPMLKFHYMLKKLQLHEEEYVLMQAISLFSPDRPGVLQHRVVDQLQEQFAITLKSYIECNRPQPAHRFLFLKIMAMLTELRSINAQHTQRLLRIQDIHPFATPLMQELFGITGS
Experiment: Transactivation of Gal4-tagged human PXR transfected in human HeLa cells preincubated for 16 hrs followed by luciferin addition and measured after 10 mins by luminescence method

Please give the measured EC50 for this molecule: Nc1nccc(-c2sc(C3CCN3)nc2-c2cccc(NS(=O)(=O)c3cc(F)ccc3F)c2F)n1 (stereo not given)
> 30 µM

Please give the measured EC50 for this molecule: Nc1nccc(-c2sc(C3COCCN3)nc2-c2cccc(NS(=O)(=O)c3cc(F)ccc3F)c2F)n1 (stereo not given)
11.5 µM

Please give the measured EC50 for this molecule: Nc1nccc(-c2sc(C3CCCNC3)nc2-c2cccc(NS(=O)(=O)c3cc(F)ccc3F)c2F)n1 (stereo not given)
> 30 µM

Please give the measured EC50 for this molecule: NCCCc1nc(-c2cccc(NS(=O)(=O)c3cc(F)ccc3F)c2F)c(-c2ccnc(N)n2)s1
> 30 µM

Please give the measured EC50 for this molecule: Nc1nccc(-c2sc(C3CNCCN3)nc2-c2cccc(NS(=O)(=O)c3cc(F)ccc3F)c2F)n1 (stereo not given)
> 30 µM

---

Target: Serine/threonine-protein kinase B-raf (Homo sapiens, UniProt P15056, V600E)
Sequence (P15056 2-766 V600E limits assumed): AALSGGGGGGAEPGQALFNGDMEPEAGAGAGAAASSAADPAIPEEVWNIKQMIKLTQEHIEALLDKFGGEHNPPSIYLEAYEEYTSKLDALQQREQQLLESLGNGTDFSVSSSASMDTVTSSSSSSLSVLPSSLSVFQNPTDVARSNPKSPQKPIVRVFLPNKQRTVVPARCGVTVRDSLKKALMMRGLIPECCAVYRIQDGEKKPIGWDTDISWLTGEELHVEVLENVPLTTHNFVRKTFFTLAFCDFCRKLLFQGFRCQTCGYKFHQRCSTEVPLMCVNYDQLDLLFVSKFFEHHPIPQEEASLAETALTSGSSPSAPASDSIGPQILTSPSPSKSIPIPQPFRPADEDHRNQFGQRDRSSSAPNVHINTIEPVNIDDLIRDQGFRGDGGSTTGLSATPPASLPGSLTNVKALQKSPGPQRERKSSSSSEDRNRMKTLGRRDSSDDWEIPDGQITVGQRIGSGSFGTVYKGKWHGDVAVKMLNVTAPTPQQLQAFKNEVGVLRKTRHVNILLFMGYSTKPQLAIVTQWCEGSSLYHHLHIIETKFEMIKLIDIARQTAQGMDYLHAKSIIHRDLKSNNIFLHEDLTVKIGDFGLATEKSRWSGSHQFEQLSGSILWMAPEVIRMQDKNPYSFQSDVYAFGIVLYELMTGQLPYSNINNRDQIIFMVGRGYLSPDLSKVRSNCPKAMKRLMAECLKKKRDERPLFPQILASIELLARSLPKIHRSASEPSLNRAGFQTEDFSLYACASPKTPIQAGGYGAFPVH
Assay: Inhibition of N-terminal His-tagged human recombinant B-Raf V600E mutant (448 to 723 residues) expressed in Escherichia coli BL21 (DE3) by Lanthascreen assay
Observable: pIC50
Lab note: report pIC50 as minus log10 of the concentration in molar units, number only.

Please give the measured pIC50 for this compound: Nc1nccc(-c2sc(C3COCCN3)nc2-c2cccc(NS(=O)(=O)c3cc(F)ccc3F)c2F)n1 (stereo not drawn)
8.22

Please give the measured pIC50 for this compound: NCCCc1nc(-c2cccc(NS(=O)(=O)c3cc(F)ccc3F)c2F)c(-c2ccnc(N)n2)s1
8.20

Please give the measured pIC50 for this compound: Nc1nccc(-c2sc(C3CCCNC3)nc2-c2cccc(NS(=O)(=O)c3cc(F)ccc3F)c2F)n1 (stereo not drawn)
8.35
